measured on: MNK1 (Homo sapiens, UniProt Q9BUB5)
Sequence (Q9BUB5 whole entry): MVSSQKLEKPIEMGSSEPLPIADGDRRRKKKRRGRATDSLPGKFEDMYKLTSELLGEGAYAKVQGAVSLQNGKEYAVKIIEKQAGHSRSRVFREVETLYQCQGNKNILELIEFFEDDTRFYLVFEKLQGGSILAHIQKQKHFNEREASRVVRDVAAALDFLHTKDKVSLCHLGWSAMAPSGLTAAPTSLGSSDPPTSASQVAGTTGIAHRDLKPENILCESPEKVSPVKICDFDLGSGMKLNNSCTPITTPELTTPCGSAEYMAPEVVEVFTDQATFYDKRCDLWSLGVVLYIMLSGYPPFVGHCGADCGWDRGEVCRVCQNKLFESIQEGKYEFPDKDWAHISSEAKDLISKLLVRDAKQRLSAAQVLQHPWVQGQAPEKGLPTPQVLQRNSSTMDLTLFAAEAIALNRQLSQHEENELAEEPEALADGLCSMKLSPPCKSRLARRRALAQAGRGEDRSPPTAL
test method notes: MNK inhibition assay (Z-Lyte kinase assay, Ser/Thr 7 peptide)
study conditions: recombinant GST-MNK1, 3 hours at 31° C.
// boundary case: IC50 equal to 400 nM maps to N; strictly smaller maps to Y

compound="Cn1nccc1Oc1ccc2cncc(-c3cc4ccccc4o3)c2c1 [Example 96]" label=N
compound="Nc1ccc(NCc2ccc3cncc(-c4cc5ccccc5o4)c3c2)cn1 [Example 129]" label=Y
compound="Nc1ncc(-c2ccco2)c2cc(CN3CCC(N)CC3)cc(Cl)c12 [Example 286]" label=Y
compound="Cc1cc(NCc2ccc3cncc(-c4cc5ccccc5o4)c3c2)cc(C)n1 [Example 126]" label=Y
compound="N[C@H]1CC[C@@H](Oc2ccc3cncc(-c4cc5ccccc5o4)c3c2)CC1 [Example 80]" label=N

Values from patent US20200031811A1
